target.of.assay: EGFR kinase (GST fusion of intracellular portion of EGFR, NM_005228) (Homo sapiens, UniProt P00533)
Construct: The intracellular portion of EGFR started at nucleotide 2189 (corresponding to amino acid 667) and ended at the termination codon
Sequence (P00533 669-1210 limits assumed): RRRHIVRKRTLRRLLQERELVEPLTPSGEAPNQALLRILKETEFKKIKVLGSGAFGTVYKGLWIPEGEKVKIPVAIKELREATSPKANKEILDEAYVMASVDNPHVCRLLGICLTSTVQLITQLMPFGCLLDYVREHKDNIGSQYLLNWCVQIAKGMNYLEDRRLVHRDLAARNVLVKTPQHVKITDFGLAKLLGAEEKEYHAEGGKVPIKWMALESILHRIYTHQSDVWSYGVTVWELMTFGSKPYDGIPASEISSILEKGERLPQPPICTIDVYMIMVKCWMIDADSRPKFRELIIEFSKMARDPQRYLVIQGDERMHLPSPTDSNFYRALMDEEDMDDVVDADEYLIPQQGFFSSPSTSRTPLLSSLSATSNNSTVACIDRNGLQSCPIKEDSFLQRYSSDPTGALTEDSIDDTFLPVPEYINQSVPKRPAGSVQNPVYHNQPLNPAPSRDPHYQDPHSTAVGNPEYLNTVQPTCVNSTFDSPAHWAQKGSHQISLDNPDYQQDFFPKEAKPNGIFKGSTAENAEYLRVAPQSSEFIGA
assay.method.text: EGFR Kinase Assay
assay.readout: pIC50
Note on units: pIC50 is unitless, being -log10 of a concentration expressed in mol/L.

// query pIC50 value for entry Nc1ncnc(Nc2ccc(OCc3ccccc3)c(Cl)c2)c1C(=O)NNC(=O)CCN1CCOCC1 [Cpd 13]
6.21

----------
target.of.assay: HER-2 kinase (GST-HIS6-Thrombin fusion, amino acids 679 to 1255 of HER-2) (Homo sapiens, UniProt P04626)
Construct: HIS6-Thrombin site (N)
Sequence (P04626 679-1255): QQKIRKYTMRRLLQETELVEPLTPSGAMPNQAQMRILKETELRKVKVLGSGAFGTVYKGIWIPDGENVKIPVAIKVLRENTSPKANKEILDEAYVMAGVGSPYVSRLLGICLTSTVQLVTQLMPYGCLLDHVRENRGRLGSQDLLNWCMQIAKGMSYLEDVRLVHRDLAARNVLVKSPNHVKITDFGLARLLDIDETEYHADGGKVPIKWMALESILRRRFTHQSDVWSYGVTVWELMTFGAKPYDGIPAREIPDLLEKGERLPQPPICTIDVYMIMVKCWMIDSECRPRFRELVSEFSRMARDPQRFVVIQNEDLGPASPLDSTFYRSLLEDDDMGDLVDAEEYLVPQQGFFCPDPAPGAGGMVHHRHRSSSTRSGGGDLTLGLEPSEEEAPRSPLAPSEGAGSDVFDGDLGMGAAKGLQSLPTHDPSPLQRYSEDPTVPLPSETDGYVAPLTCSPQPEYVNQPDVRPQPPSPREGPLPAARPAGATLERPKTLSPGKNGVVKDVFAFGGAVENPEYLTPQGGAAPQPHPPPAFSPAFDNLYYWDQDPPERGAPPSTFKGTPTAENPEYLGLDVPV
assay.method.text: HER-2 Kinase Assay
measurement.context: read-out: HER2 IC50
Reported pIC50 values follow for various compounds
Note on units: pIC50 is unitless, being -log10 of a concentration expressed in mol/L.

Examples with their reported pIC50 follow.
INSERT INTO measurements (query_smiles, result_number) VALUES
  ('Nc1ncnc(Nc2ccc(OCc3ccccc3)c(Cl)c2)c1C(=O)NNC(=O)CCN1CCOCC1', 5.24),
  ('Nc1ncnc(Nc2ccc(OCc3ccccc3)c(Cl)c2)c1C(=O)NCCN1CCCCC1', 5.00),
  ('Nc1ncnc(Nc2ccc(OCc3ccccc3)c(Cl)c2)c1C(=O)OCCN1CCOCC1', 5.86),
  ('NNC(=O)c1c(N)ncnc1Nc1ccc(OCc2ccccc2)c(Cl)c1', 6.82);

Next, consider the following compound.
// query pIC50 value for entry `Nc1ncnc(Nc2ccc(OCc3ccccc3)c(Cl)c2)c1C(=O)O`
6.11

Attribution: patent US20090111810A1
